For each of the compounds below, state its pIC50.
Assay: Antitumor activity against human MDA231 cells after 24 to 48 hrs by MTT assay
Type: functional, cell-based
Conditions: MDA-MB-231
Interpret pIC50 as the negative base-10 log of the concentration measured in mol/L.

Task: GET /values?readout=pIC50&item= `CN(C)CCNCCC(=O)Nc1csc2c1C(=O)c1ccccc1C2=O.Cl.Cl`
Output: 5.70

Task: Return reported pIC50; argument: `O=C(CCS)Nc1csc2c1C(=O)c1ccccc1C2=O`
Output: 4.82

Task: Quick check: pIC50 of `CCN(CC)CCC(=O)Nc1csc2c1C(=O)c1ccccc1C2=O.Cl` ?
Output: 5.60

Task: Look up pIC50 for this compound: `O=C(CN1CCOCC1)Nc1csc2c1C(=O)c1ccccc1C2=O`
Output: 5.15

Task: pIC50 lookup needed for `O=C(CO)Nc1csc2c1C(=O)c1ccccc1C2=O` , thanks.
Output: 5.00

Task: Field request: pIC50 | item: `NCCC(=O)Nc1csc2c1C(=O)c1ccccc1C2=O.O=C(O)C(F)(F)F`
Output: 5.43

Task: Value lookup for pIC50; key = COc1cccc2c1C(=O)c1c(O)c3c(c(O)c1C2=O)C[C@@](O)(C(=O)CO)C[C@@H]3O[C@H]1C[C@H](N)[C@H](O)[C@H](C)O1 [DOXORUBICIN]
Output: 5.95

Task: // pIC50 lookup, key: `CCN(CC)CC(=O)Nc1csc2c1C(=O)c1ccccc1C2=O`
Output: 5.07

Task: Param item = `CCCNC(=O)Nc1csc2c1C(=O)c1ccccc1C2=O` ; retrieve measured pIC50.
Output: 5.02

Task: Which measured pIC50 value corresponds to `O=C(CS)Nc1csc2c1C(=O)c1ccccc1C2=O` ?
Output: 4.87

Task: Look up pIC50 for this compound: `CN(C)CCNC(=O)Nc1csc2c1C(=O)c1ccccc1C2=O`
Output: 5.06

Task: Please look up its pIC50: `O=C(CCN1CCOCC1)Nc1csc2c1C(=O)c1ccccc1C2=O`
Output: 5.00

Task: What does the record list as pIC50 for `Nc1csc2c1C(=O)c1ccccc1C2=O` ?
Output: 4.95

Task: Please give the measured pIC50 for this compound: `O=C(CCO)Nc1csc2c1C(=O)c1ccccc1C2=O`
Output: 5.04

Task: I would be grateful if you could share the reported pIC50 for `CN(C)CCNCC(=O)Nc1csc2c1C(=O)c1ccccc1C2=O` .
Output: 5.31

Task: For the compound shown here, `O=C1c2ccccc2C(=O)c2c(NC(=O)[C@@H]3CCCN3)csc21` , give the reported pIC50.
Output: 5.17

Task: Item `NCC(=O)Nc1csc2c1C(=O)c1ccccc1C2=O` has what recorded pIC50?
Output: 5.21

----------
System: Caco-2
Assay: Antitumor activity against human differentiated Caco2 cells after 24 to 48 hrs by MTT assay
Type: cell-based
Would you mind telling me the reported pIC50 of each entry?
On this scale, pIC50 is minus log10 of a concentration expressed in M (mol/L).

Task: I would be grateful if you could share the reported pIC50 for `CCN(CC)CCC(=O)Nc1csc2c1C(=O)c1ccccc1C2=O.Cl` .
Output: 5.39

Task: So what does the record say about pIC50 for `COc1cccc2c1C(=O)c1c(O)c3c(c(O)c1C2=O)C[C@@](O)(C(=O)CO)C[C@@H]3O[C@H]1C[C@H](N)[C@H](O)[C@H](C)O1` ?
Output: 6.22

Task: Find the recorded pIC50 belonging to `CN(C)CCNCCC(=O)Nc1csc2c1C(=O)c1ccccc1C2=O.Cl.Cl` and report it.
Output: 5.42

Task: # pIC50 lookup, item `NCCC(=O)Nc1csc2c1C(=O)c1ccccc1C2=O.O=C(O)C(F)(F)F`
Output: 5.21

----------
Test system: MDA-MB-435
Experiment: Antitumor activity against human MDA-MB-435 cells after 24 to 48 hrs by MTT assay
Type: functional, cell-based
Property Label: IC50 (µM)
The figure you give is taken to be in µM; do not add the unit.

Task: Which IC50 is listed for `CN(C)CCNCCC(=O)Nc1csc2c1C(=O)c1ccccc1C2=O.Cl.Cl` ?
Output: 0.5

Task: Looking for the measured IC50 of `CCN(CC)CCC(=O)Nc1csc2c1C(=O)c1ccccc1C2=O.Cl` , can you help?
Output: 0.5

Task: // lookup IC50 for `NCCC(=O)Nc1csc2c1C(=O)c1ccccc1C2=O.O=C(O)C(F)(F)F`
Output: 0.4

----------
Experiment: Cardiotoxicity in rat H9c2 cells assessed as cell viability at 1 uM up to 120 hrs by MTT assay
Format: toxicity, cell-based
Settings: read-out: Activity
Property Label: viability at 120 h, 1 µM (%)
Give the quantity in %, number only.

Task: Fill in the blank: the reported viability at 120 h, 1 µM of `CN(C)CCNCCC(=O)Nc1csc2c1C(=O)c1ccccc1C2=O.Cl.Cl` is ____.
Output: 76

Task: For the compound `CCN(CC)CCC(=O)Nc1csc2c1C(=O)c1ccccc1C2=O.Cl` , what viability at 120 h, 1 µM is on record?
Output: 74

----------
Field: pIC50. Provide a value for each of the molecules that follow.
Test system: SF-295
Assay: Antitumor activity against human SF295 cells after 24 to 48 hrs by MTT assay
Format: functional, cell-based
Conceptually, pIC50 converts a concentration in mol/L into minus its log10.

Task: For the record `COc1cccc2c1C(=O)c1c(O)c3c(c(O)c1C2=O)C[C@@](O)(C(=O)CO)C[C@@H]3O[C@H]1C[C@H](N)[C@H](O)[C@H](C)O1` , what value of pIC50 is listed for SF-295?
Output: 5.36

Task: Query the reported pIC50 for SF-295; item: `CCN(CC)CCC(=O)Nc1csc2c1C(=O)c1ccccc1C2=O.Cl`
Output: 6.22

Task: // fetch SF-295 pIC50 for `CN(C)CCNCCC(=O)Nc1csc2c1C(=O)c1ccccc1C2=O.Cl.Cl`
Output: 6.22

Task: Can you look up pIC50 on SF-295 for `NCCC(=O)Nc1csc2c1C(=O)c1ccccc1C2=O.O=C(O)C(F)(F)F` ?
Output: 5.55

----------
Assay: Antitumor activity against human MDA231 cells after 24 to 48 hrs by MTT assay
Format: functional, cell-based
Conditions: MDA-MB-231
Kindly state IC50 for each of the entries shown.

Task: I have this molecule here, `N[C@@H](Cc1ccccc1)C(=O)Nc1csc2c1C(=O)c1ccccc1C2=O.O=C(O)C(F)(F)F` , and I need its recorded IC50.
Output: > 40 µM

Task: Query: IC50; subject: `C[C@H](N)C(=O)Nc1csc2c1C(=O)c1ccccc1C2=O`
Output: > 40 µM

Task: Tell me the measured IC50 of `NCCCC[C@H](N)C(=O)Nc1csc2c1C(=O)c1ccccc1C2=O` , please.
Output: > 40 µM
